- Test system: SK-OV-3
- assay_text: NCI tumour cell line growth inhibition, 48 h
Calls of active or inactive are those of the source. Cut-off read from the data, not from the text of the source: active = GI50 up to about 1.1 µM and inactive = higher.
I would appreciate it if you answered using one of these outcomes: class 1 (active), class 0 (inactive)

Here are 5 compounds together with their reported answers.
[[record]]
compound = "O=[N+]([O-])c1cccc2nccc(NCC(O)CO)c12 (stereo unspecified)"
class_label = "class 0"

[[record]]
compound = "O=C(c1nsc(Cl)c1Cl)N1CCCCC1"
class_label = "class 0"

[[record]]
compound = "O=C(NNC(=O)c1ccccc1O)c1cccc(Br)c1"
class_label = "class 0"

[[record]]
compound = "COC(=O)c1sc(=S)sc1SCc1ccccc1CSc1sc(=S)sc1C(=O)OC"
class_label = "class 0"

[[record]]
compound = "COc1ccc2[nH]c3c(C)c4ccncc4c(C)c3c2c1"
class_label = "class 1"


Pending compound:
Query block: Short answer needed: outcome of this test for O=C(CNC(=O)OCc1ccccc1)Oc1ccccc1 ?
Result block: class 0

###

- Test system: SW-620
- assay_text: NCI tumour cell line growth inhibition, 48 h
Active and inactive are the calls of the source. Cut-off read from the data, not from the text of the source: active = GI50 up to about 1.1 µM and inactive = higher.
assay_readout: GI50

[[record]]
molecule = "O=C(O)C1CCc2nnc(-c3ccccc3)n21 (stereo not drawn)"
assay_readout = "GI50"
experimental_value = "> 100 µM (inactive)"


I have 2 molecules here; please give me GI50 for each one.
1. COc1ccc(/C=N/n2c(-c3ccccc3)n[nH]c2=O)c(OC)c1
2. CCOC(=O)C1(C/C=C/CBr)CCc2ccccc2C1=O (stereo not drawn)

Result block:
> 100 µM (inactive)
14.5 µM (inactive)

###

- Tested on: M19-MEL
- assay_text: NCI tumour cell line growth inhibition, 48 h
The source made the active and inactive calls. Cut-off read from the data, not from the text of the source: active = GI50 up to about 1.1 µM and inactive = higher.
I would appreciate it if you answered using one of these outcomes: y = active, n = inactive

[[record]]
compound = "CN1C2(c3ccccc3)C(C(=O)c3ccccc3)=C(C(=O)c3ccccc3)C1(c1ccccc1)c1c(-c3ccccc3)sc(-c3ccccc3)c12"
class_label = "n"


Pending compound:
Query block: Short answer needed: outcome of this test for CC(=O)CN(Cc1cc(C)c2c(c1)c1ccccc1n2Cc1ccccc1)S(=O)(=O)c1ccc(C)cc1 ?
Result block: n

###

- Tested on: HOP-62
- assay_text: NCI tumour cell line growth inhibition, 48 h
Active and inactive are the calls of the source. Rule as the data show it: active = GI50 up to about 1.1 µM and inactive = higher.
I would appreciate it if you answered using one of these outcomes: True for active, False for inactive

[[record]]
molecule = "COc1cc(-c2cc(CCC(=O)Nc3ccccc3[N+](=O)[O-])n(-c3ccc([N+](=O)[O-])cc3[N+](=O)[O-])n2)ccc1O"
class_label = "False"

[[record]]
molecule = "COc1ccc2[nH]c3c(C)c4ccncc4c(C)c3c2c1"
class_label = "True"


Query block: Short answer needed: outcome of this test for O=C1c2ccccc2C(=O)N1CCN(CCN1C(=O)c2ccccc2C1=O)Cc1ccccc1 ?
Result block: False

Query block: Short answer needed: outcome of this test for Cn1nc(-c2ccccc2NC(=O)C(F)(F)F)c(=O)n(C)c1=S ?
Result block: False

Query block: Short answer needed: outcome of this test for CN(CCCN1CCCC1)CCCN(C)C(=O)Cc1ccc(Cl)c(Cl)c1 ?
Result block: False

Query block: Short answer needed: outcome of this test for COC1OC(C)C(NC(=O)OCC(Cl)(Cl)Cl)C2OC(C)(C)OC12 (stereo not given) ?
Result block: False

Query block: Short answer needed: outcome of this test for N/C=N/S(=O)(=O)c1ccc(NC(=O)COC(=O)c2cccc3c(=O)c4ccccc4[nH]c23)cc1 ?
Result block: False

Query block: Short answer needed: outcome of this test for COc1cc2c(oc(=O)c3cc(C)cc(OC)c32)c2c(C3OC(C)C(O)C(C)(O)C3O)ccc(O)c12 (stereo not given) ?
Result block: True

Query block: Short answer needed: outcome of this test for O/N=C/C1c2ccccc2-c2ccccc21 ?
Result block: False

Query block: Short answer needed: outcome of this test for CN1C/C(=C\c2ccc(Cl)cc2)C(=O)/C(=C/c2ccc(Cl)cc2)C1 ?
Result block: False

Query block: Short answer needed: outcome of this test for Cc1cc(Cl)ccc1N1C(=O)C(=O)C(c2nc3ccccc3s2)C(=O)C1=O ?
Result block: False

Query block: Short answer needed: outcome of this test for O=c1ccn(C2OC(CO)C(O)C2F)c(=O)n1Cc1ccccc1 (stereo not given) ?
Result block: False

Query block: Short answer needed: outcome of this test for O=C(Nc1ccccc1F)c1cc2ccc(O)cc2o/c1=N\c1ccccc1F ?
Result block: False

Query block: Short answer needed: outcome of this test for O=c1oc2cc(/N=C/c3ccc4c(c3)OCO4)ccc2c2ccccc12 ?
Result block: False

Query block: Short answer needed: outcome of this test for O=C1C2CCCCC2C(=O)N1n1c(Cc2ccccc2)n[nH]c1=O (stereo not given) ?
Result block: False

Query block: Short answer needed: outcome of this test for CC(C)C1=CC23CCC4C(C)(C(=O)O)CCCC4(C)C2CC1C1C(=O)N(c2ccccc2N2C(=O)C4C5CC6C7(C)CCCC(C)(C(=O)O)C7CCC6(C=C5C(C)C)C4C2=O)C(=O)C13 (stereo not given) ?
Result block: False

Query block: Short answer needed: outcome of this test for O=C1OCC(c2ccc(Cl)cc2)=C1Cl ?
Result block: False

Query block: Short answer needed: outcome of this test for CC(=O)OCC1OC(n2c(S)nc(-c3ccccc3)c(C#N)c2=O)C(OC(C)=O)C(OC(C)=O)C1OC(C)=O (stereo not given) ?
Result block: False

Query block: Short answer needed: outcome of this test for Cc1c(C(=O)OCc2ccccc2)[n+]([O-])c2cc(Cl)c(Cl)cc2[n+]1[O-] ?
Result block: False

Query block: Short answer needed: outcome of this test for CC(=O)CN(Cc1cc(C)c2c(c1)c1ccccc1n2Cc1ccccc1)S(=O)(=O)c1ccc(C)cc1 ?
Result block: False

###

Exercise: for every item that follows, state its recorded GI50.
- Tested on: Malme-3M
- assay_text: NCI tumour cell line growth inhibition, 48 h
Activity calls are given as the source filed them. No stated cut-off is given here; in the data, active = GI50 up to about 1.1 µM and inactive = higher.

[[record]]
compound = "CSc1nc(Br)nc2c1ncn2C1CC(Oc2ccc(C)cc2)C(COc2ccc(C)cc2)O1 (stereo unspecified)"
subject_of_test = "Malme-3M"
experimental_value = "> 100 µM (inactive)"

[[record]]
compound = "O=c1c2cccnc2[nH]c2ccc3scnc3c12"
subject_of_test = "Malme-3M"
experimental_value = "> 10 µM (inactive)"

[[record]]
compound = "O=C1C2CCCCC2C(=O)N1n1c(Cc2ccccc2)n[nH]c1=O (stereo unspecified)"
subject_of_test = "Malme-3M"
experimental_value = "> 100 µM (inactive)"

[[record]]
compound = "CC(NNC(=O)CC(=O)N(C(=O)c1ccccc1)c1ccc(Cl)cc1)c1cc2ccccc2oc1=O (stereo unspecified)"
subject_of_test = "Malme-3M"
experimental_value = "> 10 µM (inactive)"

[[record]]
compound = "O=C(c1cc(Br)ccc1O)c1cc(Br)ccc1O"
subject_of_test = "Malme-3M"
experimental_value = "17.3 µM (inactive)"


Query block: Could you tell me which GI50 is on file for CSc1nc(Nc2ccccc2Cl)c2c(N)nn(C)c2n1 ?
Result block: > 100 µM (inactive)

###

- Test system: NCI-H460
- assay_text: NCI tumour cell line growth inhibition, 48 h
Calls of active or inactive are those of the source. No stated cut-off is given here; in the data, active = GI50 up to about 1.1 µM and inactive = higher. Where a SMILES comes first, the peptide text is derived from it. The star is where a group is joined. Cbz = O=C(OCc1ccccc1)*
assay_readout: GI50

Take a look at these entries with their results.
[[record]]
compound = "Cc1nc2cccc([N+](=O)[O-])c2n1CCCN(C)C"
experimental_value = "> 100 µM (inactive)"

[[record]]
compound = "C#CCN(Cc1ccc2nc(OC)c(OC)nc2c1)c1cc(OC)c(OC)c(OC)c1"
experimental_value = "20 µM (inactive)"

[[record]]
compound = "COC(=O)c1[nH]c(=S)[nH]c(=O)c1-c1ccc(Cl)cc1"
experimental_value = "> 50 µM (inactive)"


I have 4 compounds here; please give me GI50 for each one.
1. CCOC(=O)CCC(NC(=O)CNC(=O)CNC(=O)C(CCC(=O)OCC)NC(=O)C(CCC(=O)OCC)NC(=O)C(CCC(=O)OCC)NC(=O)OCc1ccccc1)C(=O)NC(CCC(=O)OCC)C(=O)NC(CCC(=O)OCC)C(=O)OCC (stereo not drawn) (Cbz-E(OEt)E(OEt)E(OEt)GGE(OEt)E(OEt)E(OEt)-OEt; configuration not given here)
2. CCOC(=O)C(=Cn1c(=S)[nH]c2ccc([N+](=O)[O-])cc21)C(=O)OCC
3. COc1c(-c2ccc3c(c2)OCO3)oc2cc3c(c(OC)c2c1=O)OCO3
4. CC(C)(C)OC(=O)C1CC[C@@H](CC(=O)Oc2ccc([N+](=O)[O-])cc2)N1 (stereo partly drawn)

Result block:
1. > 75 µM (inactive)
2. > 100 µM (inactive)
3. 14.4 µM (inactive)
4. > 100 µM (inactive)

Query block: Could you tell me which GI50 is on file for COC(=O)c1sc(=S)sc1SCc1ccccc1CSc1sc(=S)sc1C(=O)OC ?
Result block: > 100 µM (inactive)

Reference source: ChEMBL document CHEMBL1201862
